Experiment: Toxicity liver stage against HepG2, at 10uM
Format: cell-based
Set-up: test concentration 10 uM, cell line HepG2-A16-CD81EGFP
Conditions: human, HepG2-A16-CD81EGFP cells; read-out: INHIBITION
cytotoxicity at 10 µM overview
Your answer should be a plain number; it is taken to be in %.

Below are worked cases with known answers.
{"Compound": "Cc1csc(N2CCN(C(=O)CCc3ccccn3)CC2)n1", "Result number": -4.27}
{"Compound": "CSc1ccccc1CN1CCCn2nc(CNC(=O)N(C)C)cc2C1", "Result number": -25.5}
{"Compound": "CCc1cnc(CN(C(C)=O)C2CCN(CCN3CCCCC3)C2)o1 (centres undefined)", "Result number": -3.63}
{"Compound": "O=C(NCc1ccc(Cl)cc1)N1CCN(CC(O)C2CC2)CC1 (centres undefined)", "Result number": 8.66}
{"Compound": "CCn1c(N)nc2cc(C(=O)NCc3ccccc3Cl)cnc21", "Result number": -14.1}
{"Compound": "O=C(NCc1ccccn1)[C@@H]1COC[C@H]2CN(C3CCC3)C[C@H]21", "Result number": -79.1}
{"Compound": "CC(C)C(NC(=O)NCc1cccnc1N(C)C)c1cccs1 (centres undefined)", "Result number": -1.86}
{"Compound": "Cn1c(Nc2cn[nH]c2)c(C#N)c(=O)n(C)c1=O", "Result number": 14.9}
{"Compound": "O=C(NCCNc1ncccn1)C1CC(=O)N(C2CCCC2)C1 (centres undefined)", "Result number": -16.2}
{"Compound": "CCOCC(=O)N1CCCn2c(CN3CCCCC3)nnc2C1", "Result number": -110}

Inquiry: What value of cytotoxicity at 10 µM has been recorded for this entry: CCC(C)(NC(=O)CCN1CCOC1=O)C(=O)OC (centres undefined)
Reply text: -16

Inquiry: Please report the recorded cytotoxicity at 10 µM for CC(C)(C)n1ncc2c1NC(=O)CSC2c1ccc2c(c1)OCCO2 (centres undefined) .
Reply text: -1.74
